B1: TPR t1 (parent)
chain: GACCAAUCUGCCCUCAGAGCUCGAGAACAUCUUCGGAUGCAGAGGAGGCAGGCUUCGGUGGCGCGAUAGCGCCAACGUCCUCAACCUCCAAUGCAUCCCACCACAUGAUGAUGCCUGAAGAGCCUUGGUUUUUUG

# Variants of: B1
# experiment_description: polymerase ribozyme fitness, log enrichment relative to wild type (log ratio); higher = more active; in vitro selection for triplet polymerase activity
Entries and their measured polymerase ribozyme fitness (log ratio) follow.
// return just the number, without any unit appended

Query: polymerase ribozyme fitness (log ratio); subject: G71A C79G -3.16

Query: polymerase ribozyme fitness (log ratio); subject: U106C U109A A121U -4.69

Query: polymerase ribozyme fitness (log ratio); subject: C11G C13U U32C G65A G113C G120U -6.75

Query: polymerase ribozyme fitness (log ratio); subject: U9C G36A C85U C123A 0.00121

Query: polymerase ribozyme fitness (log ratio); subject: C12U U54A C64U 0.381
